meta.source: ChEMBL document CHEMBL1137679

# System: Bacillus pumilus
# PROTOCOL_SUMMARY: Antimicrobial activity against Bacillus pumilus MTCC 1456 after 24 hrs by agar dilution assay
# Assay type: functional
# TEST_SETTINGS: MTCC 1456, 24 h
We begin with a simple list: items and their reported MIC.

Consider the following illustrative entries.
Output measured MIC for this item: CC(=O)NC[C@H]1CN(c2ccc(N3CCOCC3)c(F)c2)C(=O)O1 [LINEZOLID]
4 µg/mL

Output measured MIC for this item: COC1(O)C(=O)c2ccccc2OC1(OC)c1cn(-c2ccccc2)nc1-c1ccc(C)cc1 (stereo not given)
> 64 µg/mL

Output measured MIC for this item: COC1(O)C(=O)c2ccccc2OC1(OC)c1cn(-c2ccccc2)nc1-c1ccc(F)cc1 (stereo not given)
64 µg/mL

Output measured MIC for this item: CO/N=C(\C(=O)N[C@@H]1C(=O)N2C(C(=O)OC(C)OC(C)=O)=C(COC(N)=O)CS[C@H]12)c1ccco1 (stereo not given in full) [CEFUROXIME AXETIL]
> 16 µg/mL

Output measured MIC for this item: N[C@@H](C(=O)N[C@@H]1C(=O)N2C(C(=O)O)=C(Cl)CS[C@H]12)c1ccccc1 [CEFACLOR ANHYDROUS]
8 µg/mL

Further cases:
Output measured MIC for this item: COC1(O)C(=O)c2ccccc2OC1(OC)c1cn(-c2ccccc2)nc1-c1ccccc1 (stereo not given)
> 64 µg/mL

Output measured MIC for this item: COC1(O)C(=O)c2ccccc2OC1(OC)c1cn(-c2ccccc2)nc1-c1ccc([N+](=O)[O-])cc1 (stereo not given)
32 µg/mL

Output measured MIC for this item: COc1ccc(-c2nn(-c3ccccc3)cc2C2(OC)Oc3ccccc3C(=O)C2(O)OC)cc1 (stereo not given)
> 64 µg/mL

Output measured MIC for this item: COC1(O)C(=O)c2ccccc2OC1(OC)c1cn(-c2ccccc2)nc1-c1ccc(Br)cc1 (stereo not given)
> 64 µg/mL

Output measured MIC for this item: COC1(O)C(=O)c2ccccc2OC1(OC)c1cn(-c2ccccc2)nc1-c1ccc(Cl)cc1 (stereo not given)
> 64 µg/mL

* * *

# Tested on: Staphylococcus aureus
# PROTOCOL_SUMMARY: Antimicrobial activity against Staphylococcus aureus MTCC 3160 at 1 mg/ml after 24 hrs by agar diffusion assay
# Format: functional
# TEST_SETTINGS: MTCC 3160, 24 h, read-out: DIZ
We begin with a simple list: items and their reported zone of inhibition at 1000 µg/mL.
Write your answer as a measured quantity: the number, then the unit.

Provide the reported zone of inhibition at 1000 µg/mL (system: Staphylococcus aureus) for COC1(O)C(=O)c2ccccc2OC1(OC)c1cn(-c2ccccc2)nc1-c1ccc(Cl)cc1 (configuration not stated)
20.4 mm

Further cases:
Provide the reported zone of inhibition at 1000 µg/mL (system: Staphylococcus aureus) for COC1(O)C(=O)c2ccccc2OC1(OC)c1cn(-c2ccccc2)nc1-c1ccc(C)cc1 (configuration not stated)
16.1 mm

Provide the reported zone of inhibition at 1000 µg/mL (system: Staphylococcus aureus) for COC1(O)C(=O)c2ccccc2OC1(OC)c1cn(-c2ccccc2)nc1-c1ccccc1 (configuration not stated)
18.1 mm

Provide the reported zone of inhibition at 1000 µg/mL (system: Staphylococcus aureus) for COC1(O)C(=O)c2ccccc2OC1(OC)c1cn(-c2ccccc2)nc1-c1ccc(F)cc1 (configuration not stated)
23 mm

Provide the reported zone of inhibition at 1000 µg/mL (system: Staphylococcus aureus) for COC1(O)C(=O)c2ccccc2OC1(OC)c1cn(-c2ccccc2)nc1-c1ccc(Br)cc1 (configuration not stated)
10.3 mm

Provide the reported zone of inhibition at 1000 µg/mL (system: Staphylococcus aureus) for COc1ccc(-c2nn(-c3ccccc3)cc2C2(OC)Oc3ccccc3C(=O)C2(O)OC)cc1 (configuration not stated)
18 mm

Provide the reported zone of inhibition at 1000 µg/mL (system: Staphylococcus aureus) for COC1(O)C(=O)c2ccccc2OC1(OC)c1cn(-c2ccccc2)nc1-c1ccc([N+](=O)[O-])cc1 (configuration not stated)
26 mm
